- Tested on: JAK1-dependent STAT6 phosphorylation in BEAS-2B human bronchial epithelial cells
- Protocol Description: JAK1 pathway assay: IL-13 stimulated STAT6 phosphorylation in BEAS-2B cells
- Type: cell-based
- Test Context: Homo sapiens, BEAS-2B, BEAS-2B cells, IL-13 stimulation; read-out: IL-13 p-STAT6 BEAS-2B IC50
Measured pIC50 values are reported for all entries that follow.
In plain terms, pIC50 is the concentration in mol/L turned into minus its base-10 logarithm.

// known answers, use as guide
- Compound: "O=C(Nc1cn(CCN2CCOCC2)nc1-c1cc2ccccc2cc1OC(F)F)c1cnn2cccnc12 [Example 85]"
  Target Of Assay: "JAK1-dependent STAT6 phosphorylation in BEAS-2B human bronchial epithelial cells"
  Measured Value: 7.47
- Compound: "CN(C)C(=O)CN1CCN(C(=O)Cn2cc(NC(=O)c3cnn4cccnc34)c(-c3cc4ccccc4cc3OC(F)F)n2)CC1 [Example 69]"
  Target Of Assay: "JAK1-dependent STAT6 phosphorylation in BEAS-2B human bronchial epithelial cells"
  Measured Value: 6.82

Given CC(C)(C)OC(=O)N1CCN(C(=O)Cn2cc(NC(=O)c3cnn4cccnc34)c(-c3cc4ccccc4cc3OC(F)F)n2)CC1 [Example 70] , respond with its pIC50.
7.60

Entry O=C(Nc1c[nH]nc1-c1cc2c(cc1OC(F)F)NCCO2)c1cnn2cccnc12 [Example 11] needs its pIC50 filled in; supply it.
8.40

* * *

This section presents compounds with their documented log10(Ki) values.
- Target Of Assay: isolated recombinant JAK2 kinase domain (Homo sapiens (Human))
- Protocol Description: JAK2 enzyme assay (Caliper LabChip, Ki)
- Test Context: read-out: JAK2 Ki
Answers are given as log10 of Ki in nM.

# annotated cases, reported log10(Ki) shown
- Compound: "O=C(Nc1cn(CC(=O)N2CCC(N3CCOCC3)CC2)nc1-c1cc2ccccc2cc1OC(F)F)c1cnn2cccnc12"
  log10(Ki): -0.06
- Compound: "O=C(Nc1cn(CC(=O)N2CC(F)(F)C2)nc1-c1cc2c(cc1OC(F)F)NCCO2)c1cnn2cccnc12"
  log10(Ki): -0.49
- Compound: "O=C(Nc1cn(CC(=O)N2CC=CCC2)nc1-c1cc2c(cc1OC(F)F)NCCO2)c1cnn2cccnc12"
  log10(Ki): -0.54
- Compound: "O=C(Nc1cn(CC(=O)N2CCC(F)(F)C2)nc1-c1cc2c(cc1OC(F)F)NCCO2)c1cnn2cccnc12"
  log10(Ki): -0.40
- Compound: "O=C(Nc1cn(CC(=O)N2CC=CCC2)nc1-c1cc2c(cc1OC(F)F)NCCS2)c1cnn2cccnc12"
  log10(Ki): -1.00
- Compound: "N#Cc1cc2cc(OC(F)F)c(-c3nn(CC(=O)N4CCC(CN5CCOCC5)CC4)cc3NC(=O)c3cnn4cccnc34)cc2s1"
  log10(Ki): -0.46

Next compound, please.
// Input: Cn1cc(NC(=O)c2cnn3cccnc23)c(-c2cc3c(cc2OC(F)F)NCCO3)n1 . Output its log10(Ki) only.
-1.00

* * *

- Test system: JAK1-dependent STAT6 phosphorylation in BEAS-2B human bronchial epithelial cells
- Protocol Description: JAK1 pathway assay: IL-13 stimulated STAT6 phosphorylation in BEAS-2B cells
- Type: cell-based
- Test Context: Homo sapiens, BEAS-2B, BEAS-2B cells, IL-13 stimulation; read-out: IL-13 p-STAT6 BEAS-2B IC50
This listing pairs molecules with measured IC50.
Reply with just the number (in nM).

Some solved cases for reference:
- Cpd Smiles: "Cc1cc2cc(OC(F)F)c(-c3n[nH]cc3NC(=O)c3cnn4cccnc34)cc2s1"
  Target Of Assay: "JAK1-dependent STAT6 phosphorylation in BEAS-2B human bronchial epithelial cells"
  Unit Label: "nM"
  IC50: 5
- Cpd Smiles: "O=C(Nc1c[nH]nc1-c1cc2c(cc1OC(F)F)CCC2)c1cnn2cccnc12"
  Target Of Assay: "JAK1-dependent STAT6 phosphorylation in BEAS-2B human bronchial epithelial cells"
  Unit Label: "nM"
  IC50: 8
- Cpd Smiles: "N#Cc1cc2cc(OC(F)F)c(-c3nn(CC(=O)N4CCC(N5CCOCC5)CC4)cc3NC(=O)c3cnn4cccnc34)cc2s1"
  Target Of Assay: "JAK1-dependent STAT6 phosphorylation in BEAS-2B human bronchial epithelial cells"
  Unit Label: "nM"
  IC50: 20
- Cpd Smiles: "CN(C)C(=O)Cn1cc(NC(=O)c2cnn3cccnc23)c(-c2cc3c(cc2OC(F)F)NCCS3)n1"
  Target Of Assay: "JAK1-dependent STAT6 phosphorylation in BEAS-2B human bronchial epithelial cells"
  Unit Label: "nM"
  IC50: 24
- Cpd Smiles: "O=C(Nc1cn(CC(=O)N2CCC(F)(F)C2)nc1-c1cc2c(cc1OC(F)F)NCCO2)c1cnn2cccnc12"
  Target Of Assay: "JAK1-dependent STAT6 phosphorylation in BEAS-2B human bronchial epithelial cells"
  Unit Label: "nM"
  IC50: 31

Note down IC50 recorded for O=C(Nc1cn(CC(=O)N2CC=CCC2)nc1-c1cc2c(cc1OC(F)F)NCCO2)c1cnn2cccnc12
19

Return the recorded IC50 value; entry: O=C(Nc1cn(Cc2ncco2)nc1-c1cc2c(cc1OC(F)F)NCCS2)c1cnn2cccnc12
20

* * *

- Target Of Assay: isolated recombinant JAK2 kinase domain (Homo sapiens (Human), UniProt O60674)
- Sequence (O60674 849-1124): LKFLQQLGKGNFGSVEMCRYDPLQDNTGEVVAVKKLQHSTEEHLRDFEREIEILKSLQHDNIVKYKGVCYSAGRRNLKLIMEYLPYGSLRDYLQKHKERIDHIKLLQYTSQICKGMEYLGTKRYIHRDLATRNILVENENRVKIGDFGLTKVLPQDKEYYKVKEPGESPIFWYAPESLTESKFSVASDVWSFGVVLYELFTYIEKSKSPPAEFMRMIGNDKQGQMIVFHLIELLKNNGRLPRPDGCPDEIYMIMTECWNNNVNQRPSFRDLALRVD
- Protocol Description: JAK2 enzyme assay (Caliper LabChip, Ki)
- Test Context: read-out: JAK2 Ki
Please respond with 1.0 when measured Ki is strictly beneath 0.2 nM, and with 0.0 in all other cases.

- Compound: "C[C@H]1COc2cc(-c3n[nH]cc3NC(=O)c3cnn4cccnc34)c(OC(F)F)cc2N1"
  Class Assignment: 0.0

Is Ki strictly under 0.2 nM for the entry Cn1cc(Cn2cc(NC(=O)c3cnn4cccnc34)c(-c3cc4c(cc3OC(F)F)NCCS4)n2)nn1 ?
1.0

Criterion: Ki strictly below 0.2 nM. Is it met by N#CC1(CNC2CCN(C(=O)Cn3cc(NC(=O)c4cnn5cccnc45)c(-c4cc5sc(C(N)=O)cc5cc4OC(F)F)n3)CC2)CC1 ?
0.0

Please check: Ki for COC(=O)c1cc2cc(OC(F)F)c(-c3n[nH]cc3NC(=O)c3cnn4cccnc34)cc2s1 , strictly under 0.2 nM or not?
1.0

Does this compound meet the criterion Ki < 0.2 nM? Cn1cc(NC(=O)c2cnn3cccnc23)c(-c2cc3sc(C(=O)N4CCN(C(=O)OC(C)(C)C)CC4)cc3cc2OC(F)F)n1
0.0

Quick check: does O=C(Nc1cn(CC(=O)N2CCNCC2)nc1-c1cc2ccccc2cc1OC(F)F)c1cnn2cccnc12 have Ki under 0.2 nM?
0.0

I'd appreciate it if you could check whether O=C(Nc1c[nH]nc1-c1cc2sc(C(=O)N3CCNCC3)cc2cc1OC(F)F)c1cnn2cccnc12 has Ki smaller than 0.2 nM.
0.0

Consider CC1CNc2cc(OC(F)F)c(-c3nn(CC(=O)N4CC=CCC4)cc3NC(=O)c3cnn4cccnc34)cc2S1 (single isomer, unassigned) [Example 104] . Does its Ki lie strictly below 0.2 nM?
1.0

Check if Ki falls below 0.2 nM for COc1cc2cnccc2cc1-c1n[nH]cc1NC(=O)c1cnn2cccnc12 .
0.0

hey, is Ki for O=C1COc2cc(-c3n[nH]cc3NC(=O)c3cnn4cccnc34)c(OC(F)F)cc2N1 lower than 0.2 nM or not?
1.0

Hi there! Is Ki for O=C(Nc1cn(CCN[C@@H]2CCOC2)nc1-c1cc2c(cc1OC(F)F)NCCS2)c1cnn2cccnc12 below 0.2 nM, do you know?
1.0

Consider the compound Cn1nnc(Cn2cc(NC(=O)c3cnn4cccnc34)c(-c3cc4c(cc3OC(F)F)NCCO4)n2)n1 . Is its Ki strictly less than 0.2 nM?
1.0

Please determine if CN(C)C(=O)Cn1cc(NC(=O)c2cnn3cccnc23)c(-c2cc3c(cc2OC(F)F)SCCO3)n1 is below 0.2 nM in terms of Ki.
0.0

* * *

- Target Of Assay: isolated recombinant JAK2 kinase domain (Homo sapiens (Human))
- Protocol Description: JAK2 enzyme assay (Caliper LabChip, Ki)
- Test Context: read-out: JAK2 Ki
pKi: −log10 of the molar value.
Would you please tag the item label 1 when its pKi is 10 or above, and label 0 when it is below?

Completed entries (count: 3):
- Compound: "O=C(Nc1c[nH]nc1-c1cc2c(cc1OC(F)F)OCCO2)c1cnn2cccnc12"
  Class Assignment: "label 0"
- Compound: "CC1CNc2cc(OC(F)F)c(-c3n[nH]cc3NC(=O)c3cnn4cccnc34)cc2S1 (single isomer, unassigned) [Example 93]"
  Class Assignment: "label 1"
- Compound: "CC1Sc2cc(-c3n[nH]cc3NC(=O)c3cnn4cccnc34)c(OC(F)F)cc2NC1=O (single isomer, unassigned) [Example 96]"
  Class Assignment: "label 1"

In the following, a different compound is considered.
Decide: is the reported value of pKi for CC1CSc2cc(-c3nn(CC(=O)N(C)C)cc3NC(=O)c3cnn4cccnc34)c(OC(F)F)cc2N1 (single isomer, unassigned) [Example 113] equal to or greater than 10?
label 0
